# Test system: OVCAR-3
# experiment: NCI tumour cell line growth inhibition, 48 h
The source made the active and inactive calls. Rule as the data show it: active = GI50 up to about 1.1 µM and inactive = higher. Non-standard residues stand in square brackets, D forms with d. Residues, ends and D or L forms follow the SMILES beside them. ξ: configuration not given here. *: point of attachment. NMeF = CN[C@@H](Cc1ccccc1)C(=O)O; ξNMeV = CNC(C(=O)O)C(C)C; Boc = CC(C)(C)OC(=O)*; OBn = c1ccc(CO*)cc1
Pick one: true (1) for active, false (0) for inactive

molecule: CC(=O)O[C@H]1C[C@H](O[C@H]2[C@@H](O)C[C@H](O[C@H]3[C@@H](O)C[C@H](O[C@H]4CC[C@@]5(C)[C@H](CC[C@@H]6[C@@H]5CC[C@]5(C)[C@@H](C7=CC(=O)OC7)CC[C@]65O)C4)O[C@@H]3C)O[C@@H]2C)O[C@H](C)[C@H]1O[C@@H]1O[C@H](CO)[C@@H](O)[C@H](O)[C@H]1O
class.label: true (1)

Turning now to a further molecule:
Ask | Recorded test outcome, item CC(C)C(C(=O)N1CCC[C@@H]1C(=O)OCc1ccccc1)N(C)C(=O)C(C(C)C)N(C)C(=O)[C@H](Cc1ccccc1)N(C)C(=O)[C@H](NC(=O)OC(C)(C)C)C(C)C (some centres not stated) (Boc-[dV][NMeF][ξNMeV][ξNMeV][dP]-OBn)
Reply | false (0)

----------
# Test system: CCRF-CEM
# experiment: NCI tumour cell line growth inhibition, 48 h
The source made the active and inactive calls. No stated cut-off is given here; in the data, active = GI50 up to about 1.1 µM and inactive = higher.
Pick one: 1 (active), 0 (inactive)

Known results for molecules:
molecule: COc1ccccc1C1C(C(=O)O)=C(CO)Oc2cc3c(cc21)OCO3 (stereo not given)
experimental.target: CCRF-CEM
class.label: 0
--
molecule: Nc1nc(=S)[nH]c2nc3c(c(-c4ccccc4)c12)CCCC3
experimental.target: CCRF-CEM
class.label: 0
--
molecule: CS(=O)(=O)c1ccc(/N=C/C=C/Nc2ccc(S(C)(=O)=O)cc2)cc1
experimental.target: CCRF-CEM
class.label: 0
--
molecule: CCN(CC)CCCOc1cc2c(cc1OC)C(=O)N1CCC[C@H]1C=N2
experimental.target: CCRF-CEM
class.label: 0

Ask | Recorded test outcome, item [N-]=[N+]=NCc1cccc(Nc2cc(=O)[nH]c(=O)[nH]2)c1
Reply | 0

Ask | Recorded test outcome, item O=C(Cn1cc(Br)c(=O)[nH]c1=O)c1ccc(-c2ccccc2)cc1
Reply | 0

Ask | Recorded test outcome, item CC1C=CC(=O)C(n2cc(F)c(=O)[nH]c2=O)O1 (stereo not given)
Reply | 0

Ask | Recorded test outcome, item O=C(NCCCCCCCCCCCCNC(=O)Nc1cccc2ccccc12)Nc1cccc2ccccc12
Reply | 0

Ask | Recorded test outcome, item N=S(c1ccccc1[N+](=O)[O-])c1ccccc1[N+](=O)[O-]
Reply | 1

Ask | Recorded test outcome, item O=C(NCCCCCCCCNC(=O)c1cnc2ccccc2n1)c1cnc2ccccc2n1
Reply | 0

----------
# System: M14
# experiment: NCI tumour cell line growth inhibition, 48 h
Activity calls are given as the source filed them. Rule as the data show it: active = GI50 up to about 1.1 µM and inactive = higher.
Pick one: active, inactive

Known results for molecules:
molecule: Cc1cccc2c(N)c3cccc(C(=O)NCC[N+](C)(C)Cc4ccccc4[N+](=O)[O-])c3nc12
class.label: inactive

molecule: COC(=O)C1=C(C(=O)OC)C(Cc2ccccc2)(OO)OC1=O (stereo not drawn)
class.label: inactive

molecule: CC1CC2C(=O)N(c3ccccc3)C(=O)C2c2[nH]c3ccccc3c21 (stereo not drawn)
class.label: inactive

molecule: Cc1ccc(S(=O)(=O)N2CCC3(C(/C=C/c4ccccc4)=Nc4ccccc43)C2c2ccccc2)cc1 (stereo not drawn)
class.label: inactive

Ask | Recorded test outcome, item c1ccc(C2C(=P(c3ccccc3)(c3ccccc3)c3ccccc3)P=PC2[P+](c2ccccc2)(c2ccccc2)c2ccccc2)cc1.c1ccc([B-](c2ccccc2)(c2ccccc2)c2ccccc2)cc1 (stereo not drawn)
Reply | active

Ask | Recorded test outcome, item CC(C)=CCC/C(C)=C/CC/C(C)=C/CC/C(=C/CC/C(C)=C\CC/C(C)=C/CC/C(C)=C/CC/C(C)=C/Cc1cc(O)ccc1O)CO
Reply | active

Ask | Recorded test outcome, item COC1=C(NC(C)=O)C(=O)c2nc3n(c2C1=O)CCC3
Reply | inactive

Ask | Recorded test outcome, item CCCCCCCCCCCCCC(=O)OCC1OC(n2cc(F)c(=O)[nH]c2=O)C(NC(=O)OCc2ccccc2)C(OC(=O)CCCCCCCCCCCCC)C1O (stereo not drawn)
Reply | inactive
